Recorded values, source a melting point compilation (Tetko et al.).

Reported melting point values for a set of compounds
measured property: melting point (°C)

compound	measured property	result number
C=C(C(=O)OC1CC(C)=CCCC(CO)=CC2OC(=O)C(=C)C21)C(O)CO (stereo not drawn)	melting point	143
O=[N+]([O-])c1ccccc1S(=O)(=O)Cl	melting point	67
CC(=O)c1ccc(C=O)cc1	melting point	33
O=C1NC(=O)c2c(Cl)c(Cl)c(Cl)c(Cl)c21	melting point	300
CCOc1ccc(OC(=O)c2ccccc2)cc1	melting point	104
O=P(O)(OCc1ccccc1)OCc1ccccc1	melting point	80
O=C(O)CCC(=O)c1ccc2c(c1)-c1cccc3cccc-2c13	melting point	208
O=[N+]([O-])c1cc([N+](=O)[O-])c(C(Br)C(Br)c2ccccc2)cc1/C=C\c1ccccc1 (stereo not drawn)	melting point	212
O=C1NC(=S)NC(=O)C1=NNc1ccc(Cl)cc1	melting point	300
CCCCCCC(=O)c1ccccc1	melting point	16.4
Cc1ccc2c(c1)/C(=N/NC(N)=O)CC2C (stereo not drawn)	melting point	227
CC12CCC(C(CO)C1=O)C2(C)C (stereo not drawn)	melting point	138
COc1cccc2cc(C(=O)O)oc12	melting point	219
NC(=O)N(CCO)N=Cc1ccc([N+](=O)[O-])o1	melting point	214
O=C(Cc1ccccc1[N+](=O)[O-])c1ccccc1[N+](=O)[O-]	melting point	166
O=C(O)CCc1cc(I)c(Oc2ccc(O)c(I)c2)c(I)c1	melting point	200
O=C(Oc1ccc(Cl)cc1)c1ccc(Oc2ccc(C(=O)Oc3ccc(Cl)cc3)cc2)cc1	melting point	149
O=C(CC(C(=O)c1ccccc1)c1ccccc1)c1ccccc1 (stereo not drawn)	melting point	128
CCn1c2ccc(Br)cc2c2cc(Br)ccc21	melting point	139
CC(=O)Oc1ccc(O)cc1	melting point	62
c1ccc2c(c1)NC1(CCCC1)O2	melting point	221
O=C(NC(CO)C(=O)OCc1ccccc1)OCc1ccccc1 (stereo not drawn)	melting point	83
Clc1ccc(C2(Cn3cncn3)CC(Br)CO2)c(Cl)c1 (stereo not drawn)	melting point	84
CC(C(=O)O)N1C(=O)c2ccccc2C1=O (stereo not drawn)	melting point	163
Cc1ccc(C(=O)COc2c(C(=O)c3ccc(Cl)c(C)c3Cl)c(C)nn2C)cc1	melting point	133
Cc1cc(C)c(O)cc1O	melting point	126
O=[N+]([O-])c1cnc(Br)s1	melting point	88
